assay: Half life in mouse liver microsomes; format: ADME; conditions: microsomes
Kindly supply the reported t1/2 values for the records listed here.
Note: unit h is implicit; provide only the numeric part.

The recorded t1/2 for `O=C1CCCCN1c1ccc(CO[C@@H]2COc3nc([N+](=O)[O-])cn3C2)cc1` is 6.7

The recorded t1/2 for `O=C1COCCN1c1ccc(CO[C@@H]2COc3nc([N+](=O)[O-])cn3C2)cc1F` is 13.2

The recorded t1/2 for `O=C1CSCCN1c1ccc(CO[C@@H]2COc3nc([N+](=O)[O-])cn3C2)cc1F` is 0.6

The recorded t1/2 for `O=[N+]([O-])c1cn2c(n1)OC[C@@H](OCc1ccc(N3CCOCC3)cc1)C2` is 8.3

The recorded t1/2 for `O=[N+]([O-])c1cn2c(n1)OC[C@@H](OCc1ccc(N3CCOCC3)nc1)C2` is 28.1

The recorded t1/2 for `O=C1CCCCN1c1ccc(CO[C@@H]2COc3nc([N+](=O)[O-])cn3C2)cc1F` is 3.5

The recorded t1/2 for `O=[N+]([O-])c1cn2c(n1)OC[C@@H](OCc1ccc(N3CCCCC3)cc1)C2` is 0.49

The recorded t1/2 for `O=C1CCCCN1c1ccc(CO[C@@H]2COc3nc([N+](=O)[O-])cn3C2)cn1` is 20.4
